- target entity: α3β3γ2 GABAA subtype receptor (Homo sapiens, UniProt P18507+P34903)
- Sequence (P34903 29-492): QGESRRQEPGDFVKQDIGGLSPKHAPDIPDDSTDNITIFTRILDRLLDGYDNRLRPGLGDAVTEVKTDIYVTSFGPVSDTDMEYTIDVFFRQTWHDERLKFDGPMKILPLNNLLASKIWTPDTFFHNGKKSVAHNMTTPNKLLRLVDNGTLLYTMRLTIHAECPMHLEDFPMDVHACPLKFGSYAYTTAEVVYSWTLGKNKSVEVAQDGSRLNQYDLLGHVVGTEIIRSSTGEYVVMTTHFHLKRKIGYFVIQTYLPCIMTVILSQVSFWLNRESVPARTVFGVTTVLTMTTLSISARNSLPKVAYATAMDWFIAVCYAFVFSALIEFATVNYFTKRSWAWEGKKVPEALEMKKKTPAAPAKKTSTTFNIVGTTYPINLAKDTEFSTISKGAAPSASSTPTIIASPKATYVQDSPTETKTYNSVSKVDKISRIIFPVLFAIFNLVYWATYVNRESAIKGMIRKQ
- Sequence (P28472 26-473 partner): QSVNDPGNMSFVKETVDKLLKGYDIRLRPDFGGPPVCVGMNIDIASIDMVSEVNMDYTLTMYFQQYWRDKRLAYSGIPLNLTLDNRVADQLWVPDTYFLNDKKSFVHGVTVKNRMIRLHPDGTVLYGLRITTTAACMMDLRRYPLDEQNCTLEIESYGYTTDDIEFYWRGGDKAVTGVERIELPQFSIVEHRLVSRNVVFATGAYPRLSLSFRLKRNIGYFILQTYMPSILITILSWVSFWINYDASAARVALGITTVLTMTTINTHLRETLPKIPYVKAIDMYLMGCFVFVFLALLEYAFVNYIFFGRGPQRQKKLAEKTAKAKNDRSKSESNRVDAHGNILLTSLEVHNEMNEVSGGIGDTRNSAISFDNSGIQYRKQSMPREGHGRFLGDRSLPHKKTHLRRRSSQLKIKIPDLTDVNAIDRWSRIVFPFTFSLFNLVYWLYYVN
- Sequence (P18507 40-475): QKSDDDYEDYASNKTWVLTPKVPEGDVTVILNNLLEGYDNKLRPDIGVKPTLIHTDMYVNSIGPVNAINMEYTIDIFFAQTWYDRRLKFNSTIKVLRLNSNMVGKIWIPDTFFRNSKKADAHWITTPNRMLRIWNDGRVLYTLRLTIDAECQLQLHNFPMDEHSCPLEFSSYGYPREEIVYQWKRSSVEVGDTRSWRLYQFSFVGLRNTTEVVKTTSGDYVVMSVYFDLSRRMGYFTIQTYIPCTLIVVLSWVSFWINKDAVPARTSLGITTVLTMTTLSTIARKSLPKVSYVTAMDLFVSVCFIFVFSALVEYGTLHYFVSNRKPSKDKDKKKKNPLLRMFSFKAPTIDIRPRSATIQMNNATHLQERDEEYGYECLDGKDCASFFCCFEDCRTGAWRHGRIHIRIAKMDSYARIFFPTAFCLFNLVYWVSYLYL
- protocol summary: cell-based
- assay setup: oocyte electrophysiology EC50 α3β3γ2, Xenopus laevis oocytes, human subunits, GABA at EC10
Friendly reminder: EC50 below 20 nM is 1, at or above is -1.

O=c1[nH]c2c(n1-c1nc3ccc(F)c(F)c3o1)CCCCC2 [compound 7]	1
O=C(Nc1ccc(OCCO)cc1)c1c[nH]c2c1C(=O)CCC2 [compound 12]	1
O=C(Nc1cccc(F)c1)c1c[nH]c2c(c1=O)CCC2 [compound 5]	-1
CCOc1ccc(NC(=O)c2c[nH]c3c2C(=O)CCC3)cc1 [compound 3]	-1
COc1ccc(NC(=O)c2c[nH]c3c2C(=O)CC(C)(C)C3)c(F)c1 [compound 6]	-1
